I'd appreciate it if you could supply inhibition values for the items below.
- TEST PROTOCOL: PAX8 transcriptional activity inhibition in RMG-I – RMG-I cells, luciferase, single concentration, primary screen (AID 652154);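 note: luciferase light reporting Pax8 driven TPO promoter activity; plate controls were median of neutral control wells for no effect and mitoxantrone controls for full effect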
- EXPERIMENTAL CONTEXT: RMG-I TPO-luciferase reporter, SteadyGlo, 24 h; at 12.6 µM; stronger effect = higher value
The campaign covered roughly 360,000 compounds. About 4,200 (1.2%) were called active. This is one part of a sample in which actives are shown more often than they occur.
Numbers only, in %.

// below: answered molecules
C[C@@H]1CN([C@@H](C)CO)C(=O)c2cc(NS(=O)(=O)c3cccs3)ccc2O[C@@H](C)CCCCO[C@@H]1CN(C)C(=O)NC1CCCCC1 ... 1.62
CC(=O)c1ccc(S(=O)(=O)N2CCC3(CC2)OCCO3)cc1 ... -17.6
C[C@@H]1CCCCO[C@@H](CN(C)Cc2ccc(C(=O)O)cc2)[C@@H](C)CN([C@@H](C)CO)C(=O)c2cc(NC(=O)Nc3ccc(C(F)(F)F)cc3)ccc2O1 ... -6.61
C=CC[C@]12C[C@@]3(O[C@H](c4ccc(C(F)(F)F)cc4)N=C3C[C@H](c3ccc(OC)cc3)[C@H]1C)N(C1CCN(Cc3ccccc3)CC1)C2=O ... -2.39
COC(=O)Cn1c(O)c(N=NC(=O)OC)c2ccccc21 ... 8.64
CNC[C@@H]1Oc2cc(C#CC3(O)CCCC3)ccc2S(=O)(=O)N([C@@H](C)CO)C[C@H]1C ... 9.72
C[C@@H]1CN([C@H](C)CO)C(=O)c2cc(NC(=O)Nc3ccc(C(F)(F)F)cc3)ccc2O[C@@H](C)CCCCO[C@@H]1CN(C)Cc1ccc(C(F)(F)F)cc1 ... -27.4
CCOc1ccccc1NC(=O)Cn1nnc(C(=O)NCc2cccs2)c1N ... 68.5

Record inhibition for all entries; do not skip any.
1. CCNC(=O)[C@H]1[C@H](CO)[C@H]2Cn3c(ccc(-c4ccc(OC)cc4)c3=O)[C@H]2N1Cc1ccccc1
2. CCCNC(=O)N1[C@@H]2c3ccc(-c4ccccc4OC)c(=O)n3C[C@H]1[C@H](CO)[C@H]2C(=O)N(C)C

Result:
1: 21.7; 2: -4.26
